# assayTarget: rGLUT5 (rat GLUT5 deglycosylation mutant N50Y, "WT") (Rattus norvegicus, UniProt P43427, A285T/N50Y/T452S)
# procedureDetails: Tryptophan fluorescence quenching of purified rat GLUT5 WT
# setupConditions: Kd, purified rGLUT5 WT (N50Y) in DDM; excitation 295 nm, emission 338 nm; n = 3
pKd: −log10 of the molar value.
reportedMetric: pKd

# pKd lookup, item O=C(CO)[C@@H](O)[C@H](O)[C@H](O)CO [D-fructose]
2.05 to 2.22

---

# assayTarget: bovine GLUT5 (Bos taurus, UniProt P58353, N51A)
reportedMetric: Kd (mM)
Give bare numbers, in mM.

For the compound shown here, `O=C(CO)[C@@H](O)[C@H](O)[C@H](O)CO` , give the reported Kd.
5.5
